All values here come from ChEMBL document CHEMBL3132808.

System: Nucleic Acid
Procedure text: Binding affinity to […] DNA oligomer d(CGATATATCG)2 (unknown origin) minor groove assessed as association constant by NMR
Format: nucleic-acid assay
Calls of active or inactive are those of the source. The calls are words filed in the database; no cut-off is given here.
Endpoint: Ka

INSERT INTO measurements (item_smiles, reported_value) VALUES
  ('CC(C)c1sc(NC(=O)c2cc(NC(=O)c3cc(NC=O)cn3C)cn2C)nc1C(=O)NCCCN(C)C', 'inactive'),
  ('COc1cccc(/C=C/c2ccc(C(=O)Nc3cc(C(=O)NCCN4CCOCC4)n(C)c3)cc2)c1', 'inactive'),
  ('CC(=O)Nc1cn(C)c(C(=O)Nc2cc(C(=O)Nc3nc(C(=O)NCCCN(C)C)c(C(C)C)s3)n(C)c2)n1', 'inactive'),
  ('CC(C)c1sc(NC(=O)c2cc(NC(=O)c3cc(NC(=O)c4cccnc4)cn3C)cn2C)nc1C(=O)NCCCN(C)C', '6.1 ×10⁴ /M');
